Test system: HL-60
TEST DESCRIPTION: NCI tumour cell line growth inhibition, 48 h
The source made the active and inactive calls. Rule as the data show it: active = GI50 up to about 1.1 µM and inactive = higher.
// allowed return values: t for active, f for inactive

Hi team, can someone confirm the assay call for CC1(CC(=O)OC(C#C[Si](C)(C)C)Cc2ccccc2)OCCO1 (stereo not given) ?
f

Hi team, can someone confirm the assay call for CC1=N/C(=C\c2ccc(N)cc2)C(=O)N1Nc1nnc(NN2C(=O)/C(=C/c3ccc(N)cc3)N=C2C)c2ccccc12 ?
f

Hi team, can someone confirm the assay call for CC(=O)Nc1ccc2c(c1)C(=O)c1cccc(F)c1-2 ?
f

Hi team, can someone confirm the assay call for C=C1C(=O)O[C@H]2[C@H]([C@H](C)CCCC(C)=O)O[C@H]([C@@]3(C)CCC(=O)O3)C[C@@H]12 ?
f

Hi team, can someone confirm the assay call for Cc1cc(NS(=O)(=O)c2ccc(NC(=O)c3cccc4c(NNc5ccc(S(=O)(=O)N=C(N)N)cc5)c5ccccc5nc34)cc2)no1 ?
f

Hi team, can someone confirm the assay call for CC1C(=O)C(C)C(c2ccco2)N(N=O)C1c1ccco1 (stereo not given) ?
f

Hi team, can someone confirm the assay call for CCCCNCCCNCCCNC(=O)c1csc(-c2csc(CCNC(=O)C(NC(=O)C(C)C(O)C(C)NC(=O)C(NC(=O)c3nc(C(CC(N)=O)NCC(N)C(N)=O)nc(N)c3C)C(OC3OC(CO)C(O)C(O)C3OC3OC(CO)C(O)C(OC(N)=O)C3O)c3c[nH]cn3)C(C)O)n2)n1 (stereo not given) ?
f

Hi team, can someone confirm the assay call for O=P1(Oc2ccccc2)N(CCCl)CCN1c1ccccc1 (stereo not given) ?
f

Hi team, can someone confirm the assay call for COc1cc2cc(C(=O)N3CC(COS(C)(=O)=O)c4c3cc([N+](=O)[O-])c3ccccc43)[nH]c2c(OC)c1OC (stereo not given) ?
t

Hi team, can someone confirm the assay call for c1ccc(CN2CCN3CCN(CC2)CCN(Cc2ccccc2)CC3)cc1 ?
f

Hi team, can someone confirm the assay call for CCOC(=O)C1=C(C)N(c2ccccc2)C2=C(C(=O)N(c3ccccc3)C2c2ccccc2)C1c1ccccc1 (stereo not given) ?
f

Hi team, can someone confirm the assay call for OCC1C(O)C(O)[C@@H]2SCCN12 (stereo not given in full) ?
f

Hi team, can someone confirm the assay call for CCOC(=O)/C(C(=O)Nc1cccc(Cl)c1)=C(/N)N1CCOCC1 ?
f

Hi team, can someone confirm the assay call for Nc1nc2[nH]cnc2c(=S)[nH]1 ?
t

Hi team, can someone confirm the assay call for COC1OC(COC(=O)NCCCCC(=O)C(F)(F)F)C(O)C(O)C1O (stereo not given) ?
f

Hi team, can someone confirm the assay call for Cc1ccccc1NC(=O)C1C(=O)N(c2ccccc2C)C(=O)/C1=N\N (stereo not given) ?
f

Hi team, can someone confirm the assay call for CC(=O)Oc1ccc2cc(Oc3ccc(Cl)cc3)c(=O)oc2c1 ?
f

Hi team, can someone confirm the assay call for N#CCN1CCN(CC#N)CCN(CC#N)CCN(CC#N)CC1 ?
f

Hi team, can someone confirm the assay call for Nc1nc(Cl)c(N)c(NCC2(CO)CC2)n1 ?
f

Hi team, can someone confirm the assay call for COc1ccc2c3c1O[C@H]1C(OC)C=CC4C(C2)N(Cc2cccs2)CCC341 (stereo not given in full) ?
f
